- Method notes: Inhibition of 20s proteasome subunit beta-5c in human RPMI8226 cells using BODIPY-NC005 by fluorescent densitometry
- Format: cell-based
- Experimental conditions: rpmi-8226
// reported IC50 per item
Measured property: IC50 (nM)

• CC1=C(C(=O)N[C@H](C)C(=O)N[C@@H](Cc2c[nH]c3ccccc23)C(=O)N[C@@H](Cc2ccccc2)C(=O)[C@@]2(C)CO2)Cc2ccccc21 = 2900
• C[C@@H](NC(=O)CN1CCOCC1)C(=O)N[C@@H](Cc1c[nH]c2ccccc12)C(=O)N[C@@H](CC1CCCCC1)C(=O)[C@@]1(C)CO1 = 2900
• COc1ccc(C[C@H](NC(=O)[C@H](C)NC(=O)CN2CCOCC2)C(=O)N[C@@H](Cc2ccccc2)C(=O)[C@@]2(C)CO2)cc1 = 180
